What viability, T/C was measured for each of the following?
- Tested on: 817829-284-R-J1-PDC multi-cell spheroid viability
- test_method_notes: Anticancer human tumor 817829-284-R-J1-PDC patient-derived colon adenocarcinoma cell line growth inhibition [PI3K]
- conditions_used: second compound 0.316 µM; first compound 10 µM; active compounds read low
Express it in %; write the number only.

Param item = CC(Cn1ccc(-c2ccc(C#N)c(Cl)c2)n1)NC(=O)c1cc(C(C)O)[nH]n1 (stereo unspecified) + CC(Nc1ccc2c(c1)OCCn1cc(N3C(=O)OCC3C(F)F)nc1-2)C(N)=O ; retrieve measured viability, T/C.
46.4

Recorded viability, T/C for C=CC(=O)N1CCN(c2nc(=O)n(-c3c(C)ccnc3C(C)C)c3nc(-c4c(O)cccc4F)c(F)cc23)C(C)C1 (stereo unspecified) + Cc1nc(NC(=O)N2CCCC2C(N)=O)sc1-c1ccnc(C(C)(C)C(F)(F)F)c1 , please?
41.2

Look up viability, T/C: C[C@@H](NC(=O)c1ncnc(N)c1Cl)c1ncc(C(=O)Nc2cc(C(F)(F)F)c(Cl)cn2)s1 + Cc1nc(NC(=O)N2CCCC2C(N)=O)sc1-c1ccnc(C(C)(C)C(F)(F)F)c1
65.6

Reported viability, T/C, compound CNC(=O)c1ccc(N2C(=S)N(c3ccc(C#N)c(C(F)(F)F)c3)C(=O)C2(C)C)cc1F + Cc1nc(NC(=O)N2CCCC2C(N)=O)sc1-c1ccnc(C(C)(C)C(F)(F)F)c1 : ____
63.3

Consider the compound shown here: CC(Cn1ccc(-c2ccc(C#N)c(Cl)c2)n1)NC(=O)c1cc(C(C)O)[nH]n1 (stereo unspecified) + CC(Nc1ncnc2nc[nH]c12)c1cc2cccc(Cl)c2c(=O)n1-c1ccccc1 What is its recorded viability, T/C?
66.3

Form field: reported viability, T/C of C#Cc1c(F)ccc2cc(O)cc(-c3ncc4c(N5CC6CCC(C5)N6)nc(OCC56CCCN5CC(F)C6)nc4c3F)c12 (stereo unspecified) + CC(Nc1ccc2c(c1)OCCn1cc(N3C(=O)OCC3C(F)F)nc1-2)C(N)=O
32.2

Would you kindly share the measured viability, T/C for Cn1ncc(Cl)c1-c1cc(C(=O)NC(CN)Cc2cccc(F)c2)sc1Cl (stereo unspecified) + COc1c(OCCCN2CCOCC2)ccc2c3n(c(=NC(=O)c4cnc(N)nc4)nc12)CCN3 ?
8.71

# input compound: CNC(=O)c1ccc(N2C(=S)N(c3ccc(C#N)c(C(F)(F)F)c3)C(=O)C2(C)C)cc1F + COc1c(OCCCN2CCOCC2)ccc2c3n(c(=NC(=O)c4cnc(N)nc4)nc12)CCN3 ; wanted: its viability, T/C
17.7

Which value of viability, T/C has been reported for Cn1ncc(Cl)c1-c1cc(C(=O)NC(CN)Cc2cccc(F)c2)sc1Cl (stereo unspecified) + CC(Nc1ccc2c(c1)OCCn1cc(N3C(=O)OCC3C(F)F)nc1-2)C(N)=O in the records?
44.7

Recorded viability, T/C of CC1(C)CCC(CN2CCN(c3ccc(C(=O)NS(=O)(=O)c4ccc(NCC5CCOCC5)c([N+](=O)[O-])c4)c(Oc4cnc5[nH]ccc5c4)c3)CC2)=C(c2ccc(Cl)cc2)C1 + Cc1nc(NC(=O)N2CCCC2C(N)=O)sc1-c1ccnc(C(C)(C)C(F)(F)F)c1 , please.
6.66

What does the record list as viability, T/C for CCCS(=O)(=O)Nc1ccc(F)c(C(=O)c2c[nH]c3ncc(-c4ccc(Cl)cc4)cc23)c1F + CC(Nc1ncnc2nc[nH]c12)c1cc2cccc(Cl)c2c(=O)n1-c1ccccc1 ?
4.81

====

- Tested on: 817829-284-R-J1-PDC multi-cell spheroid viability
- test_method_notes: Anticancer human tumor 817829-284-R-J1-PDC cell line growth inhibition [PI3K];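 note: spheroids exposed to agents for seven days before readout; percent of vehicle DMSO control viability which is 100%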
- conditions_used: second compound 0.0316 µM; first compound 0.1 µM; active compounds read low
Output Met for records whose viability, T/C is lower than 40%, Not met for records at or above 40%.

Item Cn1nccc1Nc1nccc(-c2ccn(C(CO)c3ccc(Cl)c(F)c3)c(=O)c2)n1 (stereo not given) + CC(Nc1ccc2c(c1)OCCn1cc(N3C(=O)OCC3C(F)F)nc1-2)C(N)=O : viability, T/C beneath 40%, strictly?
Not met

Given CC1(C)CCC(Nc2ncc(C(F)(F)F)c(-c3c[nH]c4c(P(C)(C)=O)c(C#N)ccc34)n2)CN1 (stereo not given) + CC(Nc1ccc2c(c1)OCCn1cc(N3C(=O)OCC3C(F)F)nc1-2)C(N)=O , is recorded viability, T/C strictly lower than 40%?
Met

Given the entry CC(=O)c1c(C)c2cnc(Nc3ccc(N4CCNCC4)cn3)nc2n(C2CCCC2)c1=O + CC(Nc1ccc2c(c1)OCCn1cc(N3C(=O)OCC3C(F)F)nc1-2)C(N)=O , would its reported viability, T/C be below 40%?
Met

Decide: viability, T/C of CC1(C)CCC(Nc2ncc(C(F)(F)F)c(-c3c[nH]c4c(P(C)(C)=O)c(C#N)ccc34)n2)CN1 (stereo not given) + Cc1nc(NC(=O)N2CCCC2C(N)=O)sc1-c1ccnc(C(C)(C)C(F)(F)F)c1 strictly below 40%?
Met

Please determine if CC(=O)c1c(C)c2cnc(Nc3ccc(N4CCNCC4)cn3)nc2n(C2CCCC2)c1=O + Cc1nc(NC(=O)N2CCCC2C(N)=O)sc1-c1ccnc(C(C)(C)C(F)(F)F)c1 is below 40% in terms of viability, T/C.
Met

====

- Tested on: 817829-284-R-J1-PDC multi-cell spheroid viability
- test_method_notes: Anticancer human tumor 817829-284-R-J1-PDC cell line growth inhibition [PI3K];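 note: spheroids exposed to agents for seven days before readout; percent of vehicle DMSO control viability which is 100%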
- conditions_used: second compound 0.0316 µM; first compound 0.000316 µM; active compounds read low
What viability, T/C was measured for each of the following?
Write the value in % as a bare number.

viability, T/C of CC(=O)c1c(C)c2cnc(Nc3ccc(N4CCNCC4)cn3)nc2n(C2CCCC2)c1=O + COc1c(OCCCN2CCOCC2)ccc2c3n(c(=NC(=O)c4cnc(N)nc4)nc12)CCN3 on 817829-284-R-J1-PDC multi-cell spheroid viability?
65.2

Form field: viability, T/C recorded for CC(=O)c1c(C)c2cnc(Nc3ccc(N4CCNCC4)cn3)nc2n(C2CCCC2)c1=O + CC(Nc1ncnc2nc[nH]c12)c1cc2cccc(Cl)c2c(=O)n1-c1ccccc1 with 817829-284-R-J1-PDC multi-cell spheroid viability (enter value)
96

817829-284-R-J1-PDC multi-cell spheroid viability / viability, T/C / Cn1ncnc1[C@H]1c2n[nH]c(=O)c3cc(F)cc(c23)N[C@@H]1c1ccc(F)cc1 + CC(Nc1ccc2c(c1)OCCn1cc(N3C(=O)OCC3C(F)F)nc1-2)C(N)=O : value?
81.7

Item CC(C)n1nc(-c2ccc3oc(N)nc3c2)c2c(N)ncnc21 + CC(Nc1ccc2c(c1)OCCn1cc(N3C(=O)OCC3C(F)F)nc1-2)C(N)=O with 817829-284-R-J1-PDC multi-cell spheroid viability - viability, T/C?
114

Quick check: viability, T/C on 817829-284-R-J1-PDC multi-cell spheroid viability, item CC(=O)c1c(C)c2cnc(Nc3ccc(N4CCNCC4)cn3)nc2n(C2CCCC2)c1=O + Cc1nc(NC(=O)N2CCCC2C(N)=O)sc1-c1ccnc(C(C)(C)C(F)(F)F)c1 ?
88.4

Which viability, T/C is reported with 817829-284-R-J1-PDC multi-cell spheroid viability for this entry: CC(C)n1nc(-c2ccc3oc(N)nc3c2)c2c(N)ncnc21 + CC(Nc1ncnc2nc[nH]c12)c1cc2cccc(Cl)c2c(=O)n1-c1ccccc1 ?
74.9

====

- Test system: 817829-284-R-J1-PDC multi-cell spheroid viability
- test_method_notes: Anticancer human tumor 817829-284-R-J1-PDC cell line growth inhibition [PI3K];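 note: spheroids exposed to agents for seven days before readout; percent of vehicle DMSO control viability which is 100%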
- conditions_used: second compound 0.0316 µM; first compound 0.316 µM; active compounds read low
Task for the reader: assign each of the following compounds its reported viability, T/C.
Give the value in % but do not write % after it.

API: value(readout=viability, T/C, system=817829-284-R-J1-PDC multi-cell spheroid viability) for record CCCS(=O)(=O)Nc1ccc(F)c(C(=O)c2c[nH]c3ncc(-c4ccc(Cl)cc4)cc23)c1F + COc1c(OCCCN2CCOCC2)ccc2c3n(c(=NC(=O)c4cnc(N)nc4)nc12)CCN3
43.8

// fetch 817829-284-R-J1-PDC multi-cell spheroid viability viability, T/C for CC(C)NCC(C(=O)N1CCN(c2ncnc3c2C(C)CC3O)CC1)c1ccc(Cl)cc1 (stereo not given) + Cc1nc(NC(=O)N2CCCC2C(N)=O)sc1-c1ccnc(C(C)(C)C(F)(F)F)c1
51.1

Notebook: pull reported viability, T/C for 817829-284-R-J1-PDC multi-cell spheroid viability, entry CC1(C)CCC(CN2CCN(c3ccc(C(=O)NS(=O)(=O)c4ccc(NCC5CCOCC5)c([N+](=O)[O-])c4)c(Oc4cnc5[nH]ccc5c4)c3)CC2)=C(c2ccc(Cl)cc2)C1 + COc1c(OCCCN2CCOCC2)ccc2c3n(c(=NC(=O)c4cnc(N)nc4)nc12)CCN3
72.7

Return viability, T/C measured with 817829-284-R-J1-PDC multi-cell spheroid viability given this compound: CCCS(=O)(=O)Nc1ccc(F)c(C(=O)c2c[nH]c3ncc(-c4ccc(Cl)cc4)cc23)c1F + CC(Nc1ncnc2nc[nH]c12)c1cc2cccc(Cl)c2c(=O)n1-c1ccccc1
62.3

Request: viability, T/C, test system 817829-284-R-J1-PDC multi-cell spheroid viability, entry CC1(C)CCC(CN2CCN(c3ccc(C(=O)NS(=O)(=O)c4ccc(NCC5CCOCC5)c([N+](=O)[O-])c4)c(Oc4cnc5[nH]ccc5c4)c3)CC2)=C(c2ccc(Cl)cc2)C1 + CC(Nc1ccc2c(c1)OCCn1cc(N3C(=O)OCC3C(F)F)nc1-2)C(N)=O
60.8
